# assayTarget: T1, HCV NS3 1073 (genotype 5) peptide on HLA-A*02:01 (human)
# T1 peptide: CINGVMWTV
# assayNotes: cytokine release

binder: I4G7 alpha chain with I4G7 beta chain2 (TCR, V domains shown) Valpha: AQSVTQPDARVTVSEGASLQLRCKYSYFGTPYLFWYVQYPRQGLQLLLKYYPGDPVVQGVNGFEAEFSKSNSSFHLRKASVHWSDWAVYFCAVSRDTNTGKLTFGDGTVLTVKP Vbeta: EAAVTQSPRNKVTVTGGNVTLSCRQTNSHNYMYWYRQDTGHGLRLIHYSYGAGNLRIGDVPDGYKATRTTQEDFFLLLELASPSQTSLYFCASSDYRDSGNTLYFGEGSRLIVV
binding result: no recognition
--
binder: I8A4 (TCR, V domains shown) Valpha: LAKTTQPPSMEAYEGQEVNVSCSHTNIATSEYIYWYRQVPHQGPQFIIQGYKDYVVNEVASLFISADRKLSTLSLPWVSLRDAAVYYCIVTDMETGGYKVVFGSGTRLLVSP Vbeta: EAAVTQSPRNKVAVTGGKVTLSCNQTNNHNNMYWYRQDTGHGLRLIHYSYGAGSTEKGDIPDGYKASRPSQENFSLILELATPSQTSVYFCASASTGASSYEQYFGPGTRLTVL
binding result: no recognition
--
binder: I4G7 alpha chain with I4G7 beta chain1 (TCR, V domains shown) Valpha: AQSVTQPDARVTVSEGASLQLRCKYSYFGTPYRIEFSGREFALLFWYVQYPRQGLQLLLKYYPGDPVVQGVNGFEAEFSKSNSSFHLRKASVHWSDWAVYFCAVSRDTNTGKLTFGDGTVLTVKP Vbeta: EAAVTQSPRNKVAVTGGKVTLSCNQTNNHNNMGELNLAAANSPLYWYRQDTGHGLRLIHYSYVADSTEKGDIPDGYKASRPSQENFSLILELASLSQTAVYFCASSGGLGGHTLYFGAGTRLSVL
binding result: no recognition

Each recorded value in this set is attributed to patent US20130011375A1.
